tested on: female Musca domestica (WRL strain); test: Lethal activity against house flies (topical application, with and without piperonyl butoxide); format: in vivo; conditions: with synergist 6 μg piperonyl butoxide per insect; mortality after 48 hrs
ASSAY READOUT: LD50 (synergised)

Per the record, CC(C)CNC(=O)/C=C/C=C/CCCCC(=O)Cc1cccc(C(F)(F)F)c1 has LD50 (synergised) of > 1.5 μg/fly

So, CC(C)CNC(=O)/C=C/C=C/CCCCCOCc1ccccc1 ? Its LD50 (synergised) was > 5 μg/fly

Entry CC(C)ONC(=O)/C=C/C=C/CCCCOCc1cccc(C(F)(F)F)c1 , LD50 (synergised) reported as > 5 μg/fly

For record CCC(CCC/C=C/C=C/C(=O)NCC(C)C)N(C)Cc1ccccc1 (stereo not shown) the listed LD50 (synergised) is > 20 μg/fly
